Data credit: patent US20220409727A1

tested on: human glioblastoma astrocytoma (U373) cells; test: (Photo-)cytotoxicity on 2D cell monolayers, resazurin assay, U373; conditions: U373, dark vs 540 nm (40 min, 9.5 J/cm^2)
test.readout: PI (540 nm)
Lab note: write the figure by itself, no unit.

Using the record for `CN(C)c1ccc(/C=C/c2ccnc(-c3cc(/C=C/c4ccc(N(C)C)cc4)ccn3)c2)cc1.F[P-](F)(F)(F)(F)F.F[P-](F)(F)(F)(F)F.[Ru+2].c1ccc(-c2ccnc3c2ccc2c(-c4ccccc4)ccnc23)cc1.c1ccc(-c2ccnc3c2ccc2c(-c4ccccc4)ccnc23)cc1` , report its PI (540 nm). 6.5

Using the record for `COc1ccc(C=Cc2ccnc(-c3cc(C=Cc4ccc(OC)cc4)ccn3)c2)cc1.F[P-](F)(F)(F)(F)F.F[P-](F)(F)(F)(F)F.[Ru+2].c1ccc(-c2ccnc3c2ccc2c(-c4ccccc4)ccnc23)cc1.c1ccc(-c2ccnc3c2ccc2c(-c4ccccc4)ccnc23)cc1` , report its PI (540 nm). 26.4
